- SUBJECT_OF_TEST: T1, human transferrin receptor (hTfR) (human, UniProt P02786 89-760)
- T1 construct: used as 0.5 uM hTfR dimer solution, immobilised on an NTA sensor chip (Ni capture plus EDC/NHS coupling); also called human TfR; TfR1
- ASSAY_METHOD_TEXT: SPR; B = KD 1-100 nM
- Procedure: NTA sensor chip (Global Life Sciences Technologies Japan K.K.) was inserted into BiacoreT200 (Global Life Sciences Technologies Japan K.K.), then the priming operation was performed three times by using running buffer containing: 10 mM HEPES pH 8.0 (Nacalai Tesque, Inc.), 150 mM NaCl (Nacalai Tesque, Inc.), 0.05% Tween 20 (Nacalai Tesque, Inc.), 0.1% BSA (SIGMA-ALDRICH) and 1.0% DMSO (FUJIFILM Wako Pure Chemical Corporation), and equilibrated at a flow rate of 30 μL/min. […]
Starred links: 1 amine or outer side, 2 acyl side, 3 side chain; linkers in the order of their positions; H or OH if unused. Positions of bridges follow the written chain, without caps; N, C: chain ends. Non-standard residues stand in square brackets, D forms with d. Primed or numbered codes have the meaning given here. *: point of attachment. E(PEG4Me) = (S)-18-amino-15-oxo-2,5,8,11-tetraoxa-14-azanonadecane-19-oic acid, COCCOCCOCCOCCNC(=O)CC[C@H](N[*:1])C(=O)[*:2]; F4aao = (S)-2-amino-3-(4-(carboxymethoxy)phenyl)propanoic acid, O=C([C@H](Cc1ccc(OCC(=O)[*:3])cc1)N[*:1])[*:2]; MePEG4c = K(MePEG4c) = (S)-20-amino-14-oxo-2,5,8,11-tetraoxa-15-azahenicosane-21-oic acid, COCCOCCOCCOCCC(=O)*; Phe(4-OMe)″ = (S)-2-amino-3-(4-methoxyphenyl)propanoic acid (F4OMe), COc1ccc(C[C@H](N[*:1])C(=O)[*:2])cc1; NMePhe(3-Cl) = CN[C@@H](Cc1cccc(Cl)c1)C(=O)O; NMe4Pal = CN[C@@H](Cc1ccncc1)C(=O)O; NMeY = CN[C@@H](Cc1ccc(O)cc1)C(=O)O; NMeF = CN[C@@H](Cc1ccccc1)C(=O)O
Reported KD is given for each of the following binders.

Example cases with answers are listed next.
Inquiry: I'd like to know its KD. The binder in question is {CH2CO}-AV[NMe4Pal]VWNY[Phe(4-OMe)″]IIRRF[NMeY]C-NH2 (thioether N-15; also: linker PEG4c) [894_0314]
Reply text: 1 to 100 nM

Inquiry: What do we get for {CH2CO}-AV[NMeF]VWNYYIIK(MePEG4c)RFYC-NH2 (thioether N-15; not fully specified (residue 14)) [894_0263] ?
Reply text: 1 to 100 nM

Note: attention shifts to another entry.
Inquiry: Recorded KD of {CH2CO}-AV[NMePhe(3-Cl)]VWNY[F4aao]II[E(PEG4Me)]R[E(PEG4Me)][NMeY]C-NH2 (thioether N-15; also: linker G-ds-ds-ds-ds-ds, attachment site not given here) [849_0410] , please.
Reply text: 1 to 100 nM
